# test: Inhibition of TAU derived synthetic hexapeptide AcPHF6 fibril formation at compound:AcPHF6 ratio of 1:1 to 1:64 incubated for 60 mins by thioflavin S fluorescence assay
Activity calls are given as the source filed them. No cut-off for these calls is given here.
observed-property: inhibition

Q: Any idea what its inhibition is? The compound is CC[C@H](C)[C@@H]1NC(=O)[C@@H]2CCCN2C(=O)[C@@H]2CCCN2C(=O)[C@H]([C@@H](C)CC)NC(=O)[C@H](CO)NC(=O)[C@H](CCCCN)NC(=O)[C@H]([C@@H](C)O)NC(=O)[C@@H]2CSSC[C@H](NC1=O)C(=O)N[C@@H](Cc1ccccc1)C(=O)N1CCC[C@H]1C(=O)N[C@@H](CC(=O)O)C(=O)NCC(=O)N[C@@H](CCCNC(=N)N)C(=O)N2
Ans: Active

Q: Any idea what its inhibition is? The compound is CC[C@H](C)[C@@H]1NC(=O)[C@@H]2CSSC[C@H](NC(=O)[C@H]([C@@H](C)CC)NC(=O)[C@H](CCC(N)=O)NC(=O)[C@H](C(C)C)NC(=O)CNC(=O)[C@H]3CCCN3C(=O)[C@H](C(C)C)NC(=O)[C@H](C)NC1=O)C(=O)N[C@@H](Cc1ccc(O)cc1)C(=O)N[C@@H](CCCCN)C(=O)N[C@@H](CO)C(=O)N[C@@H]([C@@H](C)CC)C(=O)N1CCC[C@H]1C(=O)N1CCC[C@H]1C(=O)N[C@@H]([C@@H](C)CC)C(=O)N2
Ans: Active

Q: Any idea what its inhibition is? The compound is CC[C@H](C)[C@@H]1NC(=O)[C@H](CCC(N)=O)NC(=O)[C@H](C(C)C)NC(=O)CNC(=O)[C@H]2CCCN2C(=O)[C@H](C(C)C)NC(=O)[C@H](CCCCN)NC(=O)[C@H]([C@@H](C)CC)NC(=O)[C@@H]2CSSC[C@H](NC1=O)C(=O)N[C@@H](Cc1ccc(O)cc1)C(=O)N[C@@H](CCCCN)C(=O)N[C@@H](CO)C(=O)N[C@@H]([C@@H](C)CC)C(=O)N1CCC[C@H]1C(=O)N1CCC[C@H]1C(=O)NCC(=O)N2
Ans: Active

Source listed as ChEMBL document CHEMBL3774331.
